The measured values listed here are drawn from PubChem BioAssay AID1159580.

experimental-protocol: chemical genetic growth profiling, strain panel (AID 1159580);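 note: tested at 20 µM; growth read once vehicle control cultures reached saturation at 30 °C; 1 = growth at the plate median or of vehicle wells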
condition-description: S. cerevisiae deletion strains, growth OD, locus YHR030C, strain SLT2, stronger effect = lower value
About 2,000 (36%) of roughly 5,500 compounds were called active. Inconclusive results (about 18%) are left out. The list shows a part of the results.
Kindly apply the following: satisfied if normalized growth is less than 0.9, not satisfied in every other case.

Does the reported normalized growth of CCC1(c2ccccc2)OC(c2cc(Cl)cc(Cl)c2O)Nc2ccccc21 (centres undefined) stay below 0.9? satisfied

* * *

Kindly state normalized growth for each of the entries shown.
experimental-protocol: chemical genetic growth profiling, strain panel (AID 1159580)
condition-description: S. cerevisiae deletion strains, growth OD, locus YPL055C, strain LGE1, stronger effect = lower value
In all, about 5,500 compounds went through this assay and about 2,000 (36%) were called active. Not shown: some 18% with an inconclusive outcome. The list shows a part of the results.

Below: 5 compounds and their reported normalized growth.
Cc1cccc(N(C)C(=S)Oc2ccc3ccccc3c2)c1 | 0.922 (inactive)
OCCN1CCN(CCCN2c3ccccc3Sc3ccc(Cl)cc32)CC1 | 0.99 (inactive)
CSC(=Nc1ccc(C(C)C)cc1)NC#N | 0.985 (inactive)
N#Cc1ccc2c(c1)N(CCCN1CCC(O)CC1)c1ccccc1S2 | 1.02 (inactive)
CC1=C2CCC3C(CC[C@]4(C)C(=O)CCC34)[C@@]2(C)CCC1=O (stereo partly specified) | 0.871 (inactive)

Value lookup for normalized growth; key = CN1CCN(C(c2ccccc2)c2ccccc2)CC1 0.975 (inactive)

* * *

experimental-protocol: chemical genetic growth profiling, strain panel (AID 1159580)
condition-description: S. cerevisiae deletion strains, growth OD, locus YJR043C, strain POL32, stronger effect = lower value
Hit rate of the full screen: of about 5,500 compounds, about 2,000 (36%) were called active. Not shown: some 18% with an inconclusive outcome. The list shows a part of the results.
measured-metric: normalized growth
Answers are plain numbers.

For each of the molecules below, state normalized growth.
1. FC(F)(F)c1ccc(-n2cncn2)nc1
2. CCCCC/C=C\C/C=C\C/C=C\C/C=C\CCCC(=O)O

1.02
0.975

Go through the list and state normalized growth for each entry.
1. Cc1ccc(C(=O)NNC(=O)c2ccncc2)c(C)c1
2. Fc1ccc(C(c2ccc(F)cc2)N2CCN(C/C=C/c3ccccc3)CC2)cc1
3. COc1ccc2[nH]cc(CCNC(C)=O)c2c1
4. O=C(NC(=S)Nc1ccc(Cl)cc1)c1ccc([N+](=O)[O-])o1
5. O=C(Oc1ccc(F)cc1)c1cccs1
6. N#CC(C#N)=CNc1cc(C(F)(F)F)ccc1N1CCCCC1
7. C[C@]12CCC3C(CC[C@H]4CC(=O)CC[C@]34C)C1CCC2=O (stereo not given in full)

[1.01, 0.983, 0.994, 0.985, 1.03, 1, 0.883]

Record normalized growth per entry; entries follow.
1. CCOC(=O)c1c(Nc2ccccc2)sc([N+](=O)[O-])c1N
2. CCS(=O)(=O)CCn1c([N+](=O)[O-])cnc1C
3. O=S(=O)(c1ccc(Cl)c(Cl)c1)N1CCN(c2ccc(C(F)(F)F)cn2)CC1
4. Cc1cc(C)c(C(=O)NCCNc2ccc(C(F)(F)F)cc2[N+](=O)[O-])c(C)c1

1: 0.956; 2: 1.08; 3: 1.03; 4: 0.968

* * *

experimental-protocol: chemical genetic growth profiling, strain panel (AID 1159580);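 note: tested at 20 µM; growth read once vehicle control cultures reached saturation at 30 °C; 1 = growth at the plate median or of vehicle wells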
condition-description: S. cerevisiae deletion strains, growth OD, locus YGL227W, strain vid30, stronger effect = lower value
In all, about 5,500 compounds went through this assay and about 2,000 (36%) were called active. Inconclusive results (about 18%) are left out. This is one part of the list.
measured-metric: normalized growth
Give bare numbers.

Recorded results for 10 compounds are shown here.
Cc1cc(O)c2c(c1O)C(=O)c1c(O)cc(C)c(O)c1C2=O | 0.983
CC(C(=O)O)c1ccc(N2Cc3ccccc3C2=O)cc1 (stereo not drawn) | 0.988
N#C/C(=C\c1ccc(O)cc1)C(=O)O | 0.998
C[N+]1(C)C2CC[C@H]1CC(OC(=O)C(O)c1ccccc1)C2 (stereo partly drawn) | 0.988
Cn1c([N+](=O)[O-])cnc1COC(N)=O | 1.01
CC(C)=CCc1c(O)cc2occ(-c3ccc4c(c3)OCO4)c(=O)c2c1O | 0.972
CN1CCN(C(c2ccccc2)c2ccccc2)CC1 | 0.968
COC(=O)C1=CO[C@@H](O[C@@H]2O[C@H](CO)[C@@H](O)[C@H](O)[C@H]2O)[C@@H]2[C@@H](C)[C@@H](O)C[C@H]12 | 0.994
CCCC(=O)Nc1ncnc2c1ncn2C1O[C@@H]2COP(=O)(O)O[C@H]2[C@H]1OC(=O)CCC (stereo partly drawn) | 0.978
O=C1c2ccccc2C(=O)c2c1ccc(O)c2O | 0.777

Provide reported normalized growth for each item, in the same order as listed.
1. COc1cc2c(cc1-c1coc3c4c(c(OC)cc3c1=O)OC(C)(C)C=C4)OCO2
2. CC(=O)OCC(=O)[C@@]1(O)CCC2C3CCC4=CC(=O)CC[C@]4(C)[C@@]3(F)[C@@H](O)C[C@@]21C (stereo partly drawn)
3. CC1(C)C=Cc2c(cc3occ(-c4ccc5c(c4)OCO5)c(=O)c3c2O)O1
4. COc1cc(O)c(C(=O)O)c(O)c1

1: 1.08; 2: 1.02; 3: 1.01; 4: 0.982

* * *

Please respond with reported normalized growth for every item in the list.
experimental-protocol: chemical genetic growth profiling, strain panel (AID 1159580);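 note: tested at 20 µM; growth read once vehicle control cultures reached saturation at 30 °C; 1 = growth at the plate median or of vehicle wells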
condition-description: S. cerevisiae deletion strains, growth OD, locus YER111C, strain swi4, stronger effect = lower value
Out of some 5,500 compounds screened, about 2,000 (36%) were called active. Not shown: some 18% with an inconclusive outcome. The list shows a part of the results.
Give bare numbers.

Below are worked cases with known answers.
COC(=O)C1=CO[C@@H](O[C@@H]2O[C@H](CO)[C@@H](O)[C@H](O)[C@H]2O)[C@@H]2[C@@H](C)[C@@H](O)C[C@H]12 | 0.991
CC(C(=O)O)c1ccc(N2Cc3ccccc3C2=O)cc1 (configuration not stated) | 0.985
Cc1nccc2c1[nH]c1ccccc12 | 0.973
O=C1OC(=O)C2C3CCC(O3)C12 (configuration not stated) | 1.02
COc1cc(O)c(C(=O)O)c(O)c1 | 0.987
O=c1[nH]cnc2nc[nH]c12 | 1.02

Hi! Can you tell me normalized growth for each of these compounds?
1. N#Cc1ccc2c(c1)N(CCCN1CCC(O)CC1)c1ccccc1S2
2. OCCN1CCN(CCCN2c3ccccc3Sc3ccc(Cl)cc32)CC1

1. 0.984
2. 1

* * *

What normalized growth was measured for each of the following?
experimental-protocol: chemical genetic growth profiling, strain panel (AID 1159580);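 note: tested at 20 µM; growth read once vehicle control cultures reached saturation at 30 °C; 1 = growth at the plate median or of vehicle wells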
condition-description: S. cerevisiae deletion strains, growth OD, locus YJL134W, strain LCB3, stronger effect = lower value
About 2,000 (36%) of roughly 5,500 compounds were called active. Roughly 18% stayed inconclusive and do not appear here. The list shows a part of the results.
Numbers only.

C[C@]12CCC3C(CC[C@H]4CC(=O)CC[C@]34C)C1CCC2=O (some centres undefined) | 1.01
COc1c2c(cc3occ(-c4ccc5c(c4)OCO5)c(=O)c13)OC(C)(C)C=C2 | 0.992
CC(=O)O[C@@H]1CC2C(C)(C)C(=O)[C@@H]3O[C@@H]3[C@]2(C)C2CC[C@]3(C)C(=CC(=O)O[C@H]3c3ccoc3)[C@@]21C (some centres undefined) | 0.982
CN(C)c1nc(N(C)C)nc(N(C)C)n1 | 1.01
CC(C)=CCc1c(O)cc2occ(-c3ccc4c(c3)OCO4)c(=O)c2c1O | 1.01

Below are some molecules; for each one, tell me its normalized growth.
1. NCCS
2. C[C@]12CCC3C(CC[C@H]4C[C@@H](Cl)CC[C@]34C)C1CCC2=O (some centres undefined)
3. CCCC(=O)Nc1ncnc2c1ncn2C1O[C@@H]2COP(=O)(O)O[C@H]2[C@H]1OC(=O)CCC (some centres undefined)
4. COC(=O)C[C@H]1C(C)(C)C(OC(C)=O)[C@]2(O)C=C3C4CC(=O)O[C@@H](c5ccoc5)[C@]4(C)CCC3[C@@]1(C)C2=O (some centres undefined)

1: 1.01; 2: 1.02; 3: 1.01; 4: 1

Below is a list of molecules. For each, state its recorded normalized growth.
1. O=c1c(-c2ccc3c(c2)OCO3)coc2cc(O)ccc12
2. CCCCCN=C(N)N/N=C\c1c[nH]c2ccc(OC)cc12
3. COC(=O)C1=CO[C@@H](O[C@@H]2O[C@H](CO)[C@@H](O)[C@H](O)[C@H]2O)[C@@H]2[C@@H](C)[C@@H](O)C[C@H]12
4. COc1c2occc2cc2ccc(=O)oc12
5. C/C=C(\C)C(=O)OC1[C@@H]2C=C3C4CC(=O)O[C@@H](c5ccoc5)[C@]4(C)CCC3[C@@](C)(C2=O)[C@@H](C(O)C(=O)OC)C1(C)C (some centres undefined)
6. O=c1cc(-c2ccc(O)cc2)oc2cc(O[C@@H]3O[C@H](CO)[C@@H](O)[C@H](O)[C@H]3O[C@@H]3OC[C@](O)(CO)[C@H]3O)cc(O)c12

[0.991, 1.01, 1, 0.985, 1.01, 1.01]

Please give normalized growth for each item listed below.
1. COc1cc(OC)c2c(c1Cl)OC1(C2=O)C(O)=CC(=O)CC1C (centres undefined)
2. C[C@H]1C(=O)O[C@@H]2CCN3CC=C(COC(=O)[C@](C)(O)[C@]1(C)O)[C@H]23
3. CC1=C2CCC3C(CC[C@]4(C)C(=O)CCC34)[C@@]2(C)CCC1=O (some centres undefined)
4. CC1=C2[C@](C)(C=CC1=O)C[C@H](O)[C@H]1[C@H](C)C(=O)O[C@]21C

[1.02, 0.994, 0.983, 1]
